System: SK-OV-3
protocol.summary: cells
Format: functional, cell-based
protocol.conditions: Homo sapiens, SK-OV-3, 72 h
Description: Cytotoxicity against human SKOV3 cells assessed as inhibition of cell proliferation after 72 hrs by MTT assay
// NB: equality with 30 nM counts as no; only IC50 strictly below is yes

| given.smiles | class.label |
| --- | --- |
| CCCCSc1ccc2c(cc1=O)[C@@H](N)CCc1cc(OC)c(OC)c(OC)c1-2 | yes |

is_below(IC50, 30 nM) for "CCCSc1ccc2c(cc1=O)[C@@H](N)CCc1cc(OC)c(OC)c(OC)c1-2" ?
yes

is_below(IC50, 30 nM) for "COc1cc2c(c(OC)c1OC)-c1ccc(SC(C)C)c(=O)cc1[C@@H](N)CC2" ?
yes

is_below(IC50, 30 nM) for "COc1cccc2c1C(=O)c1c(O)c3c(c(O)c1C2=O)C[C@@](O)(C(=O)CO)C[C@@H]3O[C@H]1C[C@H](N)[C@H](O)[C@H](C)O1" ?
no

is_below(IC50, 30 nM) for "CCSc1ccc2c(cc1=O)[C@@H](N)CCc1cc(OC)c(OC)c(OC)c1-2" ?
no

is_below(IC50, 30 nM) for "COc1cc2c(c(OC)c1OC)-c1ccc(OC)c(=O)cc1[C@@H](NC(C)=O)CC2" ?
no

Source: ChEMBL document CHEMBL4257561
